tested on: Plasmodium falciparum 3D7; assay: SYBR Green assay, Plasmodium falciparum strain 3D7; assay type: cell-based; details: P. falciparum strain 3D7, 96 h incubation, read-out: Pf EC50 strain 3D7
attribute measured: EC50 (nM)
Response body: numeric value in nM, unit text excluded.

Incoming: I'd like to know its EC50. The molecule in question is C[C@@H]1CN(c2ncc(F)c(N3CC(C(=O)NC(C)(C)c4cnc5ccccn45)C3)n2)C[C@H](C)N1C [Example 90]
Outgoing: 300

Incoming: Now this one: CC1CN(c2ncc(Cl)c(N3CC(C(=O)NC(C)(C)c4cnc5ccccn45)C3)n2)C[C@@H](C)N1 (stereo partly shown) [Example 46]
Outgoing: 57

Incoming: Another molecule to look at: CC(C)N1CCN(c2ncc(Cl)c(N3CC(C(=O)NC(C)(C)c4cnc5ccccn45)C3)n2)CC1 [Example 71]
Outgoing: 560

Incoming: And the next one, CC1NCCN(c2ncc(Cl)c(N3CC(C(=O)NC(C)(C)c4cnc5ccccn45)C3)n2)C1C (stereo not shown) [Example 79] ?
Outgoing: 2.2

Incoming: Please do the same for C[C@@H]1CN(c2ncc(Cl)c(N3CC(C(=O)NC(C)(C)c4cnc5ccccn45)C3)n2)[C@@H](C)CN1C [Example 109] as well.
Outgoing: 120

Incoming: Next: Cc1ccc2ncc(C(C)(C)NC(=O)C3CN(c4nc(N5CCN(C)[C@H](C)C5)ncc4Cl)C3)n2c1 [Example 98]
Outgoing: 7

Incoming: And CN1CCN(c2ncc(F)c(N3CC(C(=O)NC(C)(C)c4cnc5c(F)cccn45)C3)n2)CC1 [Example 61] ?
Outgoing: 260

Incoming: // next record CC1CN(c2ncc(Cl)c(N3CC(C(=O)N(C)C(C)(C)c4cnc5ccccn45)C3)n2)CCN1C (stereo not shown) [Example 74]
Outgoing: 120

Incoming: Now the molecule CN1CCN(c2cc(N3CC(C(=O)NC(C)(C)c4cnc5ccccn45)C3)c(Cl)cn2)CC1 [Example 105]
Outgoing: 18

Incoming: Likewise for Cc1ccc2ncc(C(C)(C)NC(=O)C3CN(c4nc(N5CCN(C)CC5)ncc4F)C3)n2c1 [Example 60] ?
Outgoing: 240

====

molecular target: Plasmodium vivax (Pv) NMT (Plasmodium vivax (strain Salvador I)); assay: biochemical
Sequence (A5K1A2 1-410): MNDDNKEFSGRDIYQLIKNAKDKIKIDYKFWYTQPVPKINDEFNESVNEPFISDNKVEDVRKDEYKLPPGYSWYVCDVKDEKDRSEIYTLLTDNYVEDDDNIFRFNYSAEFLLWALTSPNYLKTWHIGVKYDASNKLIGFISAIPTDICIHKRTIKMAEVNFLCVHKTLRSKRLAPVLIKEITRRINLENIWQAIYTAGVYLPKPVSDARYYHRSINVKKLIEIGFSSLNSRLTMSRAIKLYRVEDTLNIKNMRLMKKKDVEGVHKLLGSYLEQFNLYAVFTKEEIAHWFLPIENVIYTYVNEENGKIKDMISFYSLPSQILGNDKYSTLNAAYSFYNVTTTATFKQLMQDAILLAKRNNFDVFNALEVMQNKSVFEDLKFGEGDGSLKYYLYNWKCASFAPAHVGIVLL
Would you mind telling me the reported pIC50 of each entry?
# pIC50 is unitless: minus log10 of the molar concentration; print number only

Incoming: May I ask what pIC50 has been recorded for O=C(NCc1cnc2cc(Cl)ccn12)C1CN(c2nc(N3CCCNCC3)ncc2Cl)C1 [Example 22] ?
Outgoing: 8.42

Incoming: Further, for CN1CCN(c2ncc(F)c(N3CC(C(=O)NC(C)(C)c4cnc5ccccn45)C3)n2)CC1 [Example 54] ?
Outgoing: 8.21

Incoming: Then this compound: COCCN1CCN(c2ncc(Cl)c(N3CC(C(=O)NC(C)(C)c4cnc5ccccn45)C3)n2)CC1 [Example 72]
Outgoing: 8.11

Incoming: And then CC1CN(c2ncc(Cl)c(N3CC(C(=O)NCc4cnc5ccccn45)C3)n2)CCN1 (centres unmarked) [Example 29] , what is it?
Outgoing: 7.74

Incoming: // query: C[C@H]1CN(c2ncc(F)c(N3CC(C(=O)NC(C)(C)c4cnc5ccccn45)C3)n2)CCN1C [Example 82]
Outgoing: 7.37

====

Exercise: for every item that follows, state its recorded IC50.
biological target: Human NMT1 (HsNMT1) (Homo sapiens); experiment: biochemical
Sequence (P30419 whole entry, looked up): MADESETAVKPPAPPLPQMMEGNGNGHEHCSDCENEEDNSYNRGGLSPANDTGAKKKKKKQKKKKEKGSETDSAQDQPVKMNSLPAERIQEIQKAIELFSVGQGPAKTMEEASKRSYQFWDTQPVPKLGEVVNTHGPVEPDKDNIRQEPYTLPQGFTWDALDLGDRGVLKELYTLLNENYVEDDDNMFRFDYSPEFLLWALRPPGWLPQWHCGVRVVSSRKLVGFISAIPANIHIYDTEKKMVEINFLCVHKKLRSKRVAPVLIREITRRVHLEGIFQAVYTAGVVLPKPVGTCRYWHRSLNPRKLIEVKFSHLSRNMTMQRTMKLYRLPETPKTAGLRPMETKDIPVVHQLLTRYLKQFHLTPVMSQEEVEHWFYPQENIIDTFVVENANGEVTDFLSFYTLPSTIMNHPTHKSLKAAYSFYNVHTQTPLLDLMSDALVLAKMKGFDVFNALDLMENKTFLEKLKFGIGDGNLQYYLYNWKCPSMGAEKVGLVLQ
The figure you give is taken to be in nM; do not add the unit.

Incoming: What value of IC50 has been recorded for this entry: CN1CCC(N(C)c2ncc(F)c(N3CC(C(=O)NC(C)(C)c4cnc5ccccn45)C3)n2)C1 (stereo not shown)
Outgoing: 37

Incoming: Entry to check: C[C@@H]1CN(c2ncc(F)c(N3CC(C(=O)NC(C)(C)c4cnc5ccccn45)C3)n2)C[C@H](C)N1C
Outgoing: 94

Incoming: Next: CC1NCCN(c2ncc(Cl)c(N3CC(C(=O)N(C)C(C)(C)c4cnc5ccccn45)C3)n2)C1C (stereo not shown)
Outgoing: 5

Incoming: Same again, this time with CC1NCCN(c2ncc(Cl)c(N3CC(C(=O)NC(C)(C)c4cnc5ccccn45)C3)n2)C1C (stereo not shown)
Outgoing: 3

All figures here come from patent US20240166643A1.
